# TARGET DESC: T1, human hepcidin-25 (human, not fully specified)
# T1 construct: also called human mature hepcidin
# T1 peptide: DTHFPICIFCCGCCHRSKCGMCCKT
# ASSAY NAME: SPR (BIAcore), Mab captured on protein A, human hepcidin-25 injected, 25 C
// F strictly below 0.0007 s⁻¹ in koff; T otherwise

Field: example entries. Status: answers known.
>>> qualitative_label("Mab 3.12 (antibody, human IgG4 S228P, kappa, V domains shown) VH: QVQLVQSGAEVKKPGSSVKVSCKASGYTFLIYPISWVRQAPGQGLEWMGNFHPYLGVTNYLEKFKGRVTITADKSTSTAYMELSSLRSEDTAVYYCARGGTGSFDYWGQGTTVTVSS VL: DIQMTQSPSSLSASVGDRVTITCSASSRVSSTYLFWYQQKPGKAPKLLIYRTSTLTSGVPSRFSGSGSGTDFTLTISSLQPEDFATYYCQQWSGYPFVFGGGTKVEIKR")
"F"
>>> qualitative_label("Mab 3.23 (antibody, human IgG4 S228P, kappa, V domains shown) VH: QVQLVQSGAEVKKPGSSVKVSCKASGYTFLIYPISWVRQAPGQGLEWMGNFHPYLGVTNYVEKFKGRVTITADKSTSTAYMELSSLRSEDTAVYYCARGGTGSFDYWGQGTTVTVSS VL: DIQMTQSPSSLSASVGDRVTITCSASSRVSSTYLFWYQQKPGKAPKLLIYRTSPLASGVPSRFSGSGSGTDFTLTISSLQPEDFATYYCQQWSGYPFVFGGGTKVEIKR")
"F"
>>> qualitative_label("Mab Hu22 (antibody, human IgG4 S228P, kappa, V domains shown) VH: QVQLVQSGAEVKKPGSSVKVSCKASGYTFTIYPISWVRQAPGQGLEWMGNFHPYLGDTNYNEKFKGRVTITADKSTSTAYMELSSLRSEDTAVYYCARGGTGSFDYWGQGTTVTVSS VL: DIQMTQSPSSLSASVGDRVTITCSASSRVSSTYLFWYQQKPGKAPKLLIYRTSTLASGVPSRFSGSGSGTDFTLTISSLQPEDFATYYCQQWSGYPFTFGGGTKVEIKR")
"T"
>>> qualitative_label("Mab L1.5 (antibody, human IgG4 S228P, kappa, V domains shown) VH: QVQLVQSGAEVKKPGSSVKVSCKASGYTFLIYPISWVRQAPGQGLEWMGNFHPYLGVTNYLEKFKGRVTITADKSTSTAYMELSSLRSEDTAVYYCARGGTGSFDYWGQGTTVTVSS VL: DIQMTQSPSSLSASVGDRVTITCSAESRVSSTYLFWYQQKPGKAPKLLIYRTSPLASGVPSRFSGSGSGTDFTLTISSLQPEDFATYYCQQWSGYPFTFGGGTKVEIKR")
"F"

Entry Mab 3.8 (antibody, human IgG4, V domains shown, Human engineered Mab, human IgG4) VH: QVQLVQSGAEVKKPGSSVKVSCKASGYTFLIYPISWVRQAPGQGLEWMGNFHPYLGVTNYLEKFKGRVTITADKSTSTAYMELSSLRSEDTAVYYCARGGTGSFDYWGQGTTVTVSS VL: DIQMTQSPSSLSASVGDRVTITCSASSRVSSTYLFWYQQKPGKAPKLLIYRTSPLASGVPSRFSGSGSGTDFTLTISSLQPEDFATYYCQQWSGYPFTFGGGTKVEIKR : is its koff no less than 0.0007 s⁻¹?
T
